Test system: HeLa Kyoto
Test: melting temperature (median over replicates), in situ; higher = more thermally stable
Details: cell cycle stage: G1/S
Each entry gets n if its melting temperature stays under 50 °C, and y if its melting temperature is 50 °C or above.

Substance	Class Assignment
MDVFLMIRRHKTTIFTDAKESSTVFELKRIVEGILKRPPDEQRLYKDDQLLDDGKTLGECGFTSQTARPQAPATVGLAFRADDTFEALCIEPFSSPPELPDVMKPQDSGSSANEQAVQ [TCEB2]	y
MADGQMPFSCHYPSRLRRDPFRDSPLSSRLLDDGFGMDPFPDDLTASWPDWALPRLSSAWPGTLRSGMVPRGPTATARFGVPAEGRTPPPFPGEPWKVCVNVHSFKPEELMVKTKDGYVEVSGKHEEKQQEGGIVSKNFTKKIQLPAEVDPVTVFASLSPEGLLIIEAPQVPPYSTFGESSFNNELPQDSQEVTCT [HSPB8]	y
MAAPSGGWNGVGASLWAALLLGAVALRPAEAVSEPTTVAFDVRPGGVVHSFSHNVGPGDKYTCMFTYASQGGTNEQWQMSLGTSEDHQHFTCTIWRPQGKSYLYFTQFKAEVRGAEIEYAMAYSKAAFERESDVPLKTEEFEVTKTAVAHRPGAFKAELSKLVIVAKASRTEL [MYDGF]	y
MAATSLMSALAARLLQPAHSCSLRLRPFHLAAVRNEAVVISGRKLAQQIKQEVRQEVEEWVASGNKRPHLSVILVGENPASHSYVLNKTRAAAVVGINSETIMKPASISEEELLNLINKLNNDDNVDGLLVQLPLPEHIDERRICNAVSPDKDVDGFHVINVGRMCLDQYSMLPATPWGVWEIIKRTGIPTLGKNVVVAGRSKNVGMPIAMLLHTDGAHERPGGDATVTISHRYTPKEQLKKHTILADIVISAAGIPNLITADMIKEGAAVIDVGINRVHDPVTAKPKLVGDVDFEGVRQKAGYITPVPGGVGPMTVAMLMKNTIIAAKKVLRLEEREVLKSKELGVATN [MTHFD2]	y

Hi, just wondering whether MGWSQDLFRALWRSLSREVKEHVGTDQFGNKYYYIPQYKNWRGQTIREKRIVEAANKKEVDYEAGDIPTEWEAWIRRTRKTPPTMEEILKNEKHREEIKIKSQDFYEKEKLLSKETSEELLPPPVQTQIKGHASAPYFGKEEPSVAPSSTGKTFQPGSWMPRDGKSHNQ [NDUFAF2] shows melting temperature of 50 °C or higher.
y

Given `GPATCH8` , state whether its melting temperature is at least 50 °C.
n

###

Give measured thermal stability score for each item. Keep answers brief.
Tested on: HeLa Kyoto
Test: thermal stability score vs G1/S (z-score of summed log2 fold changes over temperatures); higher = more thermally stable than in G1/S
Settings: cell cycle stage: early G1 (4.5 h after nocodazole release)
Give bare numbers.

The following sequences have reported results that may help.
Sequence Entry	thermal stability score
MDDKELIEYFKSQMKEDPDMASAVAAIRTLLEFLKRDKGETIQGLRANLTSAIETLCGVDSSVAVSSGGELFLRFISLASLEYSDYSKCKKIMIERGELFLRRISLSRNKIADLCHTFIKDGATILTHAYSRVVLRVLEAAVAAKKRFSVYVTESQPDLSGKKMAKALCHLNVPVTVVLDAAVGYIMEKADLVIVGAEGVVENGGIINKIGTNQMAVCAKAQNKPFYVVAESFKFVRLFPLNQQDVPDKFKYKADTLKVAQTGQDLKEEHPWVDYTAPSLITLLFTDLGVLTPSAVSDELIKLYL [EIF2B1]	-1.83
MAATGANAEKAESHNDCPVRLLNPNIAKMKEDILYHFNLTTSRHNFPALFGDVKFVCVGGSPSRMKAFIRCVGAELGLDCPGRDYPNICAGTDRYAMYKVGPVLSVSHGMGIPSISIMLHELIKLLYYARCSNVTIIRIGTSGGIGLEPGTVVITEQAVDTCFKAEFEQIVLGKRVIRKTDLNKKLVQELLLCSAELSEFTTVVGNTMCTLDFYEGQGRLDGALCSYTEKDKQAYLEAAYAAGVRNIEMESSVFAAMCSACGLQAAVVCVTLLNRLEGDQISSPRNVLSEYQQRPQRLVSYFIKKKLSKA [UPP1]	-4.67
MAAACRSVKGLVAVITGGASGLGLATAERLVGQGASAVLLDLPNSGGEAQAKKLGNNCVFAPADVTSEKDVQTALALAKGKFGRVDVAVNCAGIAVASKTYNLKKGQTHTLEDFQRVLDVNLMGTFNVIRLVAGEMGQNEPDQGGQRGVIINTASVAAFEGQVGQAAYSASKGGIVGMTLPIARDLAPIGIRVMTIAPGLFGTPLLTSLPEKVCNFLASQVPFPSRLGDPAEYAHLVQAIIENPFLNGEVIRLDGAIRMQP [HSD17B10]	0.0147

Hello, I would appreciate it if you could give thermal stability score for each entry below.
1. MLCRLGGRWLRPLPALQLWARDLPLAPVPTSGAKRPTLPVWAVAPVSAVHANGWYEALAASSPVRVAEEVLLGVHAATGLPWWGSILLSTVALRGAVTLPLAAYQHYILAKVENLQPEIKTIARHLNQEVAVRANQLGWSKRDARLTYLKNMRRLISELYVRDNCHPFKATVLVWIQLPMWIFMSFALRNLSTGAAHSEGFSVQEQLATGGILWFPDLTAPDSTWILPISVGVINLLIVEICALQKIGMSRFQTYITYFVRAMSVLMIPIAATVPSSIVLYWLCSSFVGLSQNLLLRSPGFRQLCRIPSTKSDSETPYKDIFAAFNTKFISRK [COX18]
2. MKSNPAIQAAIDLTAGAAGGTACVLTGQPFDTMKVKMQTFPDLYRGLTDCCLKTYSQVGFRGFYKGTSPALIANIAENSVLFMCYGFCQQVVRKVAGLDKQAKLSDLQNAAAGSFASAFAALVLCPTELVKCRLQTMYEMETSGKIAKSQNTVWSVIKSILRKDGPLGFYHGLSSTLLREVPGYFFFFGGYELSRSFFASGRSKDELGPVPLMLSGGVGGICLWLAVYPVDCIKSRIQVLSMSGKQAGFIRTFINVVKNEGITALYSGLKPTMIRAFPANGALFLAYEYSRKLMMNQLEAY [SLC25A15]

1: 0.867; 2: -2.21
